Data origin: patent US10227347B2

I'd appreciate it if you could supply pIC50 values for the items below.
pIC50: −log10 of the molar value.

Qu. Checklist item: pIC50 tested on HDAC8 (Homo sapiens, UniProt Q9BY41), entry "COc1ccc(-c2nc(N3CCOCC3)c3nc(CN(C)c4ncc(C(=O)NO)cn4)n(C)c3n2)cc1" , value?
Ans. 7.00 to 9.00

Qu. Reported pIC50 for HDAC8 (Homo sapiens, UniProt Q9BY41), given "CN(Cc1nc2c(N3CCOCC3)nc(-c3cnc(N)nc3)nc2n1C)c1ncc(C(=O)NO)cn1" ?
Ans. 7.00 to 9.00

Qu. Item "COc1ccc(-c2nc(N3CCOCC3)c3nc(CN(C)c4ncc(C(=O)NO)cn4)n(C)c3n2)cn1" with HDAC8 (Homo sapiens, UniProt Q9BY41) - pIC50?
Ans. 6.00 to 7.00

Qu. Provide value of pIC50 for this record tested with HDAC8 (Homo sapiens, UniProt Q9BY41): "CN(Cc1nc2c(N3CCOCC3)nc(-c3ccc(N)cc3)nc2n1C)c1ncc(C(=O)NO)cn1"
Sequence (Q9BY41 whole entry, species assumed): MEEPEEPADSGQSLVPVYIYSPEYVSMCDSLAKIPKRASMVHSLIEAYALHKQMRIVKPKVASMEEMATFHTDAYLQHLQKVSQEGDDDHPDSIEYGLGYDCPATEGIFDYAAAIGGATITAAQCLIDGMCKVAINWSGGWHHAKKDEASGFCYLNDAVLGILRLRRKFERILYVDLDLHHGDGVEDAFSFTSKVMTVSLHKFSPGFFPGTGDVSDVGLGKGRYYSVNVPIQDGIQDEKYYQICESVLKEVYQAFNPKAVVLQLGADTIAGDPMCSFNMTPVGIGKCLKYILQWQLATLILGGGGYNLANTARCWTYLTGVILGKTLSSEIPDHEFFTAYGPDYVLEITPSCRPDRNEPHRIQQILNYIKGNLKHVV
Ans. 7.00 to 9.00
